Kindly supply the reported interaction score values for the records listed here.
Target: T1, 4H380-AA
T1 chain: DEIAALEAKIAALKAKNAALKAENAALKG
Assay: two-hybrid library CCmax;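 further: natural log of median RNA to DNA barcode read ratio; higher means stronger binding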
Details: mean of both orientations
Number only, no unit.

Query: Answer with reported interaction score of DKNAALEAKIAALKAKNAALKAEIAALEG [4H3449-AA]
Result: -1.96

Query: Answer with reported interaction score of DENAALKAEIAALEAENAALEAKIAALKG [4H1558-AA]
Result: 1.48

Query: Answer with reported interaction score of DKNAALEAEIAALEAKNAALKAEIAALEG [4H3129-AA]
Result: -1.83

Query: Answer with reported interaction score of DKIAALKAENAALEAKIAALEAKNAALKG [4H2728-AA]
Result: -1.69

Query: Answer with reported interaction score of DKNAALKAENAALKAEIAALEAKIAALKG [4H3782-AA]
Result: -1.52

Query: Answer with reported interaction score of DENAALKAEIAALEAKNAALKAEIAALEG [4H1593-AA]
Result: -1.5

Query: Answer with reported interaction score of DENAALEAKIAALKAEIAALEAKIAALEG [4H1349-AA]
Result: -0.754

Query: Answer with reported interaction score of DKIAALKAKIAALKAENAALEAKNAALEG [4H2903-AA]
Result: 0.283
